Examples of binders with documented pEC50 follow.
Target: T1, cynomolgus monkey CCR8 (cynomolgus monkey, UniProt G7NYJ2 1-355)
T1 construct: whole, on cells; also called CynoCCR8
T1 sequence (G7NYJ2 entry or part of it): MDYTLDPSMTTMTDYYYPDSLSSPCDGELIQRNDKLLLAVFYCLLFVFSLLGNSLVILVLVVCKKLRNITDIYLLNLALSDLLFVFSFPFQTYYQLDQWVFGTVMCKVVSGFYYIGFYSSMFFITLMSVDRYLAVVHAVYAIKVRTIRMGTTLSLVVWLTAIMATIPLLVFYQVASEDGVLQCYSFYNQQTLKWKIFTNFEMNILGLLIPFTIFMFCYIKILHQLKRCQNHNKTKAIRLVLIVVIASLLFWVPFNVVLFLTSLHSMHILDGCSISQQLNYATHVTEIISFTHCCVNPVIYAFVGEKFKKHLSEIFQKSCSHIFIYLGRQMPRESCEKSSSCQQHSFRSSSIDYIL
Assay: FACS, CHO-K1-CynoCCR8 cells
To interpret pEC50, take it as minus log10 of a concentration measured in moles per litre.

A selection of reference data follows.
PR004336 (antibody, human IgG1, kappa, V domains shown, heavy-chain semi-humanized variant of PR004128, IgG1 with DE mutation) VH: EVQLVESGGGLVQPGGSLKLSCAASGFTFNTYAMNWVRQASGKGLEWVGRIRSKSNNYATYYADSVKDRFTISRDDSKSTLYLQMNSLKTEDTAVYYCVRGKENGNYYAMDFWGQGTTVTVSS VL: DIVMTQAAPSVPVTPGESVSISCRSSKSLLHSNGKIYLYWFLQRPGQSPQLLIYRMSNLASGVPDRFSGSGSGTAFTLRISRVEAEDVGVYYCMQHLEYPLTFGAGTKLEIKR	8.48
PR004344 (antibody, human IgG1, kappa, V domains shown, light-chain semi-humanized variant of PR004128, IgG1 with DE mutation) VH: EVQLVESGGGLVQPKGSLKLSCAASGFTFNTYAMNWVRQAPGKGLEWVARIRSKSNNYATYYADSVKDRFTISRDDSQSMLYLQMNNLKTEDTAMYYCVRGKENGNYYAMDFWGQGTSVTVSA VL: DIVMTQSPLSLPVTLGQPASISCRSSKSLLHSNGNTYLYWFQQRPGQSPRLLIYRMSNLASGVPDRFSGSGSGTDFTLKISRVEAEDVGVYYCMQHLEYPLTFGQGTKLEIKR	8.45
PR004326 (antibody, human IgG1, kappa, V domains shown, PTM variant of PR004128, IgG1 with DE mutation) VH: EVQLVESGGGLVQPKGSLKLSCAASGFTFNTYAMNWVRQAPGKGLEWVARIRSKSNNYATYYADSVKDRFTISRDDSQSMLYLQMNNLKTEDTAMYYCVRGKENANYYAMDFWGQGTSVTVSA VL: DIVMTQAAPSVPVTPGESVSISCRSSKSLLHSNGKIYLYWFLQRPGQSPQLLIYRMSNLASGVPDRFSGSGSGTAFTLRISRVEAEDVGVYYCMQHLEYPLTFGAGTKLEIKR	9.12

input: Which measured pEC50 value corresponds to PR004338 (antibody, human IgG1, kappa, V domains shown, heavy-chain semi-humanized variant of PR004128, IgG1 with DE mutation) VH: EVQLVESGGGLVQPGGSLKLSCAASGFTFNTYAMNWVRQASGKGLEWVGRIRSKSNNYATYYADSVKDRFTISRDDSKSTLYLQMNSLKTEDTAVYYCVRGKENGNYYAMDYWGQGTTVTVSS VL: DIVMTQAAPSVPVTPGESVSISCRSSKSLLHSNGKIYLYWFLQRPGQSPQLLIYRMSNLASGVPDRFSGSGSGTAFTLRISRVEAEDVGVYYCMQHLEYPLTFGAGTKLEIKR ?
output: 8.38

input: Which measured pEC50 value corresponds to PR004329 (antibody, human IgG1, kappa, V domains shown, PTM variant of PR004128, IgG1 with DE mutation) VH: EVQLVESGGGLVQPKGSLKLSCAASGFTFNTYAMNWVRQAPGKGLEWVARIRSKSNNYATYYADSVKDRFTISRDDSQSMLYLQMNNLKTEDTAMYYCVRGKEQGNYYAMDFWGQGTSVTVSA VL: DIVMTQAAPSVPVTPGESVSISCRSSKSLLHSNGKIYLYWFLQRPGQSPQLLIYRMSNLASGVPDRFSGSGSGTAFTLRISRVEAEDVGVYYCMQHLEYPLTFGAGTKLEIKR ?
output: 9.39

input: Which measured pEC50 value corresponds to PR004324 (antibody, human IgG1, kappa, V domains shown, PTM variant of PR004128, IgG1 with DE mutation) VH: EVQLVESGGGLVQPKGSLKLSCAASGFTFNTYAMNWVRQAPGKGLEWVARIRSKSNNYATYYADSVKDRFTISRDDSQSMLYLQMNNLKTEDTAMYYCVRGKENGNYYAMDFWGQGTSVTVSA VL: DIVMTQAAPSVPVTPGESVSISCRSSKSLLHSNAKIYLYWFLQRPGQSPQLLIYRMSNLASGVPDRFSGSGSGTAFTLRISRVEAEDVGVYYCMQHLEYPLTFGAGTKLEIKR ?
output: 8.64

input: Which measured pEC50 value corresponds to PR004345 (antibody, human IgG1, kappa, V domains shown, light-chain semi-humanized variant of PR004128, IgG1 with DE mutation) VH: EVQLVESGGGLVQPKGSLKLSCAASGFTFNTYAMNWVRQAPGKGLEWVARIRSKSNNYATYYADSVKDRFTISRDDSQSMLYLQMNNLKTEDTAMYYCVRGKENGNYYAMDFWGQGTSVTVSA VL: DIVMTQSPLSLPVTLGQPASISCRSNKSLLHSNGNTYLYWFQQRPGQSPRLLIYRMSNLASGVPDRFSGSGSGTDFTLKISRVEAEDVGVYYCMQHLEYPLTFGQGTKLEIKR ?
output: 8.22

input: Which measured pEC50 value corresponds to PR004331 (antibody, human IgG1, kappa, V domains shown, heavy-chain semi-humanized variant of PR004128, IgG1 with DE mutation) VH: EVQLVESGGGLVKPGGSLRLSCAASGFTFNTNAMNWVRQAPGKGLEWVGRIRSKSNNYATYYADSVKDRFTISRDDSKSTLYLQMNSLKTEDTAVYYCVRGKENGNYYAMDFWGQGTTVTVSS VL: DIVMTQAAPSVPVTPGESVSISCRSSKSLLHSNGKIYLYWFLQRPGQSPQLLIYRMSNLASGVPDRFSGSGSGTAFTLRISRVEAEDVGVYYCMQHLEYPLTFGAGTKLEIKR ?
output: 8.16

input: Which measured pEC50 value corresponds to PR004327 (antibody, human IgG1, kappa, V domains shown, PTM variant of PR004128, IgG1 with DE mutation) VH: EVQLVESGGGLVQPKGSLKLSCAASGFTFQTYAMNWVRQAPGKGLEWVARIRSKSNNYATYYADSVKDRFTISRDDSQSMLYLQMNNLKTEDTAMYYCVRGKENGNYYAMDFWGQGTSVTVSA VL: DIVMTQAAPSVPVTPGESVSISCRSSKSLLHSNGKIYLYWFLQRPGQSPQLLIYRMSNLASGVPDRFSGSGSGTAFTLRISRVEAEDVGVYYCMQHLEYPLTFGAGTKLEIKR ?
output: 7.87

input: Which measured pEC50 value corresponds to PR004334 (antibody, human IgG1, kappa, V domains shown, heavy-chain semi-humanized variant of PR004128, IgG1 with DE mutation) VH: EVQLVESGGGLVQPGGSLRLSCAASGFTFNTNAMNWVRQAPGKGLEWVSRIRSKSNNYATYYADSVKDRFTISRDDSKSTLYLQMNSLRAEDTAVYYCVRGKENGNYYAMDFWGQGTTVTVSS VL: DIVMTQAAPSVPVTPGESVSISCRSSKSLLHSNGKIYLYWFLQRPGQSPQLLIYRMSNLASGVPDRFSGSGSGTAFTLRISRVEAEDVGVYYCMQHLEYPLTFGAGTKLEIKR ?
output: 8.12
